From: patent US20160346249A1

- METHOD_SUMMARY: 2-week dog toxicity and toxicokinetic study
- Format: in vivo
- REPORTED_CONDITIONS: male, beagle, in vivo, po, 5 mg/kg/day, males, 5 mg/kg/day, Day 13, read-out: AUC0-24
MEASURED_PROPERTY: AUC(0-t) (ng·h/mL)

> print(dat)
                     line.notation  measured.property  value.unit  recorded.measurement
1  Clc1ccc([C@]23CNC[C@H]2C3)cc1Cl           AUC(0-t)     ng·h/mL                  7550

====

Recorded Cmax values for a group of compounds are listed next.
- METHOD_SUMMARY: Single dose 300 mg / 450 mg pharmacokinetic, safety and tolerability study in healthy male and female subjects
- REPORTED_CONDITIONS: male, human, plasma, po, 300 mg
MEASURED_PROPERTY: Cmax (ng/mL)

> print(dat)
                                   compound  recorded.measurement
1           Clc1ccc([C@]23CNC[C@H]2C3)cc1Cl                  3480
2  O=C1NCC2(c3ccc(Cl)c(Cl)c3)CC12 (centres unmarked)                  1740

====

- METHOD_SUMMARY: Rat pulmonary function study
- Assay type: in vivo
- REPORTED_CONDITIONS: male, Crl:CD(SD)IGS BR, rat, in vivo; single oral gavage
MEASURED_PROPERTY: NOAEL (mg/kg)

> print(dat)
                                   molecule  recorded.measurement
1  Clc1ccc([C@]23CNC[C@H]2C3)cc1Cl [amitifadine]                    30

====

- METHOD_SUMMARY: 12-month dog toxicity and toxicokinetic study
- Type: in vivo
- REPORTED_CONDITIONS: female, beagle, dog, plasma, po, 15 mg/kg/day, females, 20 (15) mg/kg/day, Day 358
MEASURED_PROPERTY: Cmax (ng/mL)

> print(dat)
                     line.notation  measured.property  recorded.measurement
1  Clc1ccc([C@]23CNC[C@H]2C3)cc1Cl               Cmax                  5800

====

- METHOD_SUMMARY: Single dose 300 mg / 450 mg pharmacokinetic, safety and tolerability study in healthy male and female subjects
- REPORTED_CONDITIONS: female, human, plasma, po, 450 mg
MEASURED_PROPERTY: concentration at 1 h (ng/mL)

> print(dat)
                                   compound  recorded.measurement
1  O=C1NCC2(c3ccc(Cl)c(Cl)c3)CC12 (stereo not shown) [EB-10101]                   285

====

- METHOD_SUMMARY: Single-dose (25 mg) food effect crossover study in 24 men (DOV 947-003)
- Assay type: in vivo, human
- REPORTED_CONDITIONS: male, human, in vivo, po, single oral dose 25 mg, Fed, 24 healthy male subjects
MEASURED_PROPERTY: half-life (h)

> print(dat)
                                   compound  recorded.measurement
1  Clc1ccc([C@]23CNC[C@H]2C3)cc1Cl [amitifadine]                  3.71
